The entries below come with measured Emax values attached.
# MEASURED_TARGET: SIRT1 (Homo sapiens, UniProt Q96EB6)
# Sequence (Q96EB6 whole entry): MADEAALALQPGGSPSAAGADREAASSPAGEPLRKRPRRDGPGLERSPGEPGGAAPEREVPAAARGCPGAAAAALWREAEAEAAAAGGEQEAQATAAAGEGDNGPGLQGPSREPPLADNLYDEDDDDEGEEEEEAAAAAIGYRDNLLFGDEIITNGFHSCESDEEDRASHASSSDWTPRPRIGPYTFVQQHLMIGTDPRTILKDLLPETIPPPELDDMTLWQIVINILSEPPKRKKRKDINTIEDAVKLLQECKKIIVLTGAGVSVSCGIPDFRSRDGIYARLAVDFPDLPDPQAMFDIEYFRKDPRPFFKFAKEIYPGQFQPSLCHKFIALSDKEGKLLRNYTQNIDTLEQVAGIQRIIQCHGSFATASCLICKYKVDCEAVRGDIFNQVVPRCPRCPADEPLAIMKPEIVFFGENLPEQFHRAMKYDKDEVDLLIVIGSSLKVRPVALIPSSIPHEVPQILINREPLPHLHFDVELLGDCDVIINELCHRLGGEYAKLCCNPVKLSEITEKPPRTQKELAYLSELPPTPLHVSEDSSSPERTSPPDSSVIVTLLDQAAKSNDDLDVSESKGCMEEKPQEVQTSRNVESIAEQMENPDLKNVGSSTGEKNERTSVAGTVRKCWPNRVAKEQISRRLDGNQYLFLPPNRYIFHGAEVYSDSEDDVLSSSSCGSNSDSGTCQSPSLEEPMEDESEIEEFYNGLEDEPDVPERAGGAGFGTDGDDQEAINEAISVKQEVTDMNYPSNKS
# METHOD_NOTES: Trp mass spectrometry assay of SIRT1 activation
# Format: biochemical
# TEST_CONTEXT: Trp peptide assay; maximum activity relative to control (100%); read-out: TRP MAX RESP (percent maximum fold activation)

Answered cases to consult:
COMPOUND | MEASURED_TARGET | OBSERVED_RESULT
O=C(Nc1cnccn1)N1c2nc(-c3ccnc(C(F)(F)F)c3)ccc2N2CCC[C@H]1C2 | SIRT1 (Homo sapiens, UniProt Q96EB6) | > 150%
Cn1ccc(-c2ccc3c(n2)N(C(=O)Nc2cnccn2)[C@H]2CCN3C2)n1 | SIRT1 (Homo sapiens, UniProt Q96EB6) | > 150%
Cc1cc(-c2ccc3c(n2)N(C(=O)Nc2cccc4nnc(C)cc24)[C@H]2CCN3C2)ccn1 | SIRT1 (Homo sapiens, UniProt Q96EB6) | > 150%
Cc1ccc(-c2ccc3c(n2)N(C(=O)NC2CCOC2)[C@H]2CCN3C2)cn1 (stereo partly shown) | SIRT1 (Homo sapiens, UniProt Q96EB6) | < 150%
CC[C@@H]1CN(c2ccc3c(n2)N(C(=O)Nc2cnccn2)[C@H]2CCN3C2)CCO1 | SIRT1 (Homo sapiens, UniProt Q96EB6) | > 150%
C[C@@H]1CN(c2ccc3c(n2)N(C(=O)Nc2cnccn2)[C@H]2CCN3C2)C[C@H](C)O1 | SIRT1 (Homo sapiens, UniProt Q96EB6) | > 150%
O=C(Nc1cncnc1)N1c2nc(-c3ccnc(C(F)(F)F)c3)ccc2N2CCC[C@H]1C2 | SIRT1 (Homo sapiens, UniProt Q96EB6) | > 150%
Cc1ccc(-c2ccc3c(n2)N(C(=O)Nc2cnccn2)[C@H]2CCN3C2)c(C)n1 | SIRT1 (Homo sapiens, UniProt Q96EB6) | > 150%
Cc1ccc(-c2ccc3c(n2)N(C(=O)NC2CCN(C)CC2)[C@H]2CCN3C2)cn1 | SIRT1 (Homo sapiens, UniProt Q96EB6) | < 150%

Field: next compound
Entry under review: Cc1cc(-c2ccc3c(n2)N(C(=O)Nc2cccnn2)[C@H]2CCCN3C2)ccn1 . Reported Emax?
> 150%
